Documented Kd across a set of binders
measured_target: T1, human beta CGRP (SEQ ID NO: 81) (human, not fully specified)
T1 construct: also called human βCGRP; hβCGRP
T1 peptide: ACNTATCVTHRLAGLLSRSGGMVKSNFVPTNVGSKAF
protocol_text: SPR, 37 C, mutein captured, CGRP analyte
Give a bare numeral; the unit pM is implied.

lipocalin mutein SEQ ID NO: 14 (designed binder, biotinylated by NHS chemistry for capture in SPR) QDSTSDLIPAPPLSKVPLQQNFQDNQFHGKWYVVGRAGNDALREDKDPEKMEATIYELKEDKSYNVTDVGFVQKKCMYVIHTFVPGSQPGEFTLGNIKSYPGVTSALVRVVSTNYNQHAMVFFKLVKQNRELFEITLYGRTKELTSELKENFIRFSKSLGLPENHIVFPVPIDQCIDGSAWSHPQFEK = 31
lipocalin mutein SEQ ID NO: 4 (designed binder, biotinylated by NHS chemistry for capture in SPR) QDSTSDLIPAPPLSKVPLQQNFQDNQFHGKWYVVGWAGNTLLREDKDPTKMQATIYELKEDKSYNVTWVYFSEKKCNYHIETFVPGSQPGEFTLGTIKSYPGETSILVRVVSTNYNQHAMVFFKGVSQNREIFEITLYGRTKELTSELKENFIRFSKSLGLPENHIVFPVPIDQCIDGSAWSHPQFEK = 753

# next binder below
Can you share its Kd? I mean this binder: lipocalin mutein SEQ ID NO: 19 (designed binder, biotinylated by NHS chemistry for capture in SPR) QDSTSDLIPAPPLSKVPLQQNFQDNQFHGKWYVVGRAGNDTLREDKDPEKMEATIYELKEDKSYNVTDVGLVQKKCMYVIHTFVPGSQPGEFTLGNIKSYPGVTSALVRVVSTNYNQHAMVFVKLVKQSRELFEITLYGRTKELTSELKENFIRFSKSLGLPENHIVFPVPIDQCIDGSAWSHPQFEK
1
